Just for reference, patent US20250034268A1 is where these values come from.

molecular target: T1, Cynomolgus monkey BCMA-Fc (cynomolgus monkey, UniProt A0A2K5UD97 1-53); experiment: BLI (ForteBio Octet), IgG captured on AHC probe, antigen in solution, avid
T1 construct: also called BCMA from cynomolgus monkey (mobile phase); not shown: Fc part
T1 sequence (A0A2K5UD97 entry or part of it): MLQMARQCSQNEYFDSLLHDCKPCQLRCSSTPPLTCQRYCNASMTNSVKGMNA
readout-type: Kd (nM)
Give a bare numeral; the unit nM is implied.

In: Which Kd is reported for this binder? antibody ADI-38481 (antibody, V domains shown) VH: QVQLVQSGAEVKKPGSSVKVSCKASGGTFSNDVISWVRQAPGQGLEWMGVIIPIFGIANYAQKFQGRVTITADESTSTAYMELSSLRSEDTAVYYCARGRGYYSSWLLDIWGQGTMVTVSS VL: DIQMTQSPSSLSASVGDRVTITCQASQDITNYLNWYQQKPGKAPKLLIYDASNLETGVPSRFSGSGSGTDFTFTISSLQPEDIATYYCQQAFDLITFGGGTKVEIK
Out: 0.897
